Tested on: DU-145
procedureDetails: NCI tumour cell line growth inhibition, 48 h
The source made the active and inactive calls. Rule as the data show it: active = GI50 up to about 1.1 µM and inactive = higher.
# GI50 listing for each entry below

COc1cc([C@@H]2c3[nH]c4ccccc4c3C(Nc3ccc([N+](=O)[O-])cc3)[C@H]3COC(=O)N23)cc(OC)c1O (stereo partly drawn)	0.321 µM (active)
O=[N+]([O-])c1ccc(-c2nn3c(C45CC6CC(CC(C6)C4)C5)nnc3s2)c(Cl)c1	> 100 µM (inactive)
O=C1N[C@H]2C(=O)c3c(Br)sc(Br)c3[C@H]2O1	13.2 µM (inactive)
Cc1cc(C)nc(NS(=O)(=O)c2ccc(NN=c3c4ccccc4n(C)c4ccccc34)cc2)n1	37 µM (inactive)
O=C(Cn1c(C(=O)/C=C/c2ccc(Cl)cc2)nc2ccccc21)c1ccc(Cl)cc1	21.7 µM (inactive)
O=C1C(O)=C(C(CCc2ccccc2)C2=C(O)C(=O)c3ccccc3C2=O)C(=O)c2ccccc21	8.55 µM (inactive)
COc1ccc(C(NS(=O)(=O)c2ccc(C)cc2)c2c(C(CBr)OC)c3ccccc3n2S(=O)(=O)c2ccccc2)cc1OC (stereo not drawn)	> 100 µM (inactive)

Identify the reported GI50 for the following entry. COC(=O)CCc1cc(OC)c2c(c1)[C@H](C(=O)OC)[C@@H](c1ccc(O)c(OC)c1)O2
> 100 µM (inactive)

###

Test system: HCC 2998
procedureDetails: NCI tumour cell line growth inhibition, 48 h
Active and inactive are the calls of the source. No stated cut-off is given here; in the data, active = GI50 up to about 1.1 µM and inactive = higher.
Choose the fitting class; nothing outside t (active), f (inactive) is accepted.

CC/C(=N/O)C(C)C(=O)CCC(=O)Nc1ccc(Cl)cc1 (stereo unspecified)	f
Cc1cn2cc(-c3ccncc3)nc2s1	f
CC(C)CC(NC(=O)C(Cc1ccccc1)NC(=O)[C@H]1CC[C@H](NC(=O)C(Cc2ccc(OC(C)(C)C)cc2)NC(=O)OC(C)(C)C)C1)C(N)=O (stereo partly specified)	f
O=C1C=CC(=O)c2c(NCC3CC3)ccc(NCC3CC3)c21	f
CN(C)c1ccc(/C=C(\NC(=O)c2ccccc2)c2nc3cncnc3[nH]2)cc1	f
c1ccc(P(=Nc2ccccc2N=P(c2ccccc2)(c2ccccc2)c2ccccc2)(c2ccccc2)c2ccccc2)cc1	t
CCOc1ccc(NC(=O)C(=O)C(C(=O)c2ccc3ccccc3c2)C2OC(=O)c3ccccc32)cc1 (stereo unspecified)	f
CC(=O)NC(C)(C)C1CCC(C)=C(c2ccccc2)C1 (stereo unspecified)	f
C=C1[C@H](OCC(C)C)[C@@H](O)[C@@H](OC(=O)c2cccnc2)C(C)(C)/C=C/[C@H](C)[C@H](OC(C)=O)[C@@]2(O)C[C@@](C)(OC(C)=O)[C@H](OC(=O)c3ccccc3)[C@@H]2[C@H]1OC(C)=O	t
C(=C\c1ccccc1)/Cn1nc(-c2ccccc2)nc1-c1cnccn1	f

Recorded test call requested for NCC1CCN(c2nc3ccccc3c3c2CCCC3)CC1
f

Which outcome was assigned to COc1cccc(-c2c(-c3ccccc3)[nH]c(C)c2C(=O)ONC(=O)c2ccccc2)c1 in this test?
f

###

System: UACC-257
procedureDetails: NCI tumour cell line growth inhibition, 48 h
Calls of active or inactive are those of the source. No stated cut-off is given here; in the data, active = GI50 up to about 1.1 µM and inactive = higher.
Measured GI50 of individual entries

CCCCCCCCCCCCCCCCCCNc1ccn(C2OC(COP(=O)(O)OCC(COP(=O)(O)OCC3OC(n4cc(C)c(=O)[nH]c4=O)CC3N=[N+]=[N-])OCCCCCCCCCCCCCCCCCC)C(O)C2O)c(=O)n1 (stereo not drawn)	50.1 µM (inactive)

Note down GI50 recorded for CCN(CC)c1nc(N(C)C)c2ccccc2n1
26.7 µM (inactive)

Return GI50 (reported value) for this molecule: Cc1ccc(C(=O)/C=C2\Nc3ccccc3S\C2=N\CS(=O)(=O)c2ccc(C)cc2)cc1
> 10 µM (inactive)
